- Target: human recombinant PDE10 enzyme (PDE10A) (Homo sapiens)
- Assay Procedure: PDE10 scintillation proximity assay (SPA), inhibition of human recombinant PDE10 enzyme activity
- Condition: geometric mean of 2-4 determinations unless otherwise indicated (b: ≧5 determinations; c: single determination)
- Procedure: PDE10 activity was measured using a scintillation assay (SPA-based method) similar to that previously described by Seeger, T. F. et al., Brain Research 985 (2003) 113-126. The compounds' relative activity as PDE10 inhibitors was investigated by assaying a fixed amount of enzyme in the presence of the test compound and low substrate concentration (cAMP) such that an IC50 could be determined. […]
Measured Property: IC50 (nM)

- Compound: "Cc1nc(C)c2c(n1)CCN(c1ncnn3c(C)nc(-c4ccccc4F)c13)C2"
  Measured Property: "IC50"
  Measured Result: 2.34
- Compound: "Cc1ccc2c(n1)CCN(c1ncnn3c(C)nc([C@@H]4CCOC4)c13)C2"
  Measured Property: "IC50"
  Measured Result: 0.279
- Compound: "Cc1nc(C2CCOCC2)c2c(N3CCc4ncccc4C3)ncnn12"
  Measured Property: "IC50"
  Measured Result: 8.82
- Compound: "Cc1nc2c(c(C(F)(F)F)n1)CN(c1ncnn3c(C)nc([C@@H]4CCOC4)c13)CC2"
  Measured Property: "IC50"
  Measured Result: 3.64
- Compound: "Cc1nc(-c2ccccc2F)c2c(N3CCc4nc(C5CC5)ncc4C3)ncnn12"
  Measured Property: "IC50"
  Measured Result: 5.93

P. Cc1nc([C@@H]2CCOC2)c2c(N3CCc4cnn(C)c4C3)ncnn12
Q. CCn1ncc2c1CN(c1ncnn3c(C)nc(-c4ccccc4F)c13)CC2
Field: entry with larger IC50 (options P / Q ). Mark your answer with the label of the selected entry.
P
(P: 3.41 nM, Q: 0.801 nM)

* * *

- Target: human recombinant PDE10 enzyme (PDE10A) (Homo sapiens, UniProt Q9Y233)
- Assay Procedure: PDE10 scintillation proximity assay (SPA), inhibition of human recombinant PDE10 enzyme activity
- Condition: geometric mean of 2-4 determinations unless otherwise indicated (b: ≧5 determinations; c: single determination)
Measured Property: IC50 (nM)

Field: example entries. Status: answers known.
- Molecule: "Cc1nc(-c2ccccc2F)c2c(N3CCc4cnn(C5CC5)c4C3)ncnn12 [Example 156]"
  Readout Units: "nM"
  IC50: 1
- Molecule: "COc1ccc2c(n1)CN(c1ncnn3c(C)nc([C@@H]4CCOC4)c13)CC2 [Example 19]"
  Readout Units: "nM"
  IC50: 2.75
- Molecule: "Cc1cc2c(cn1)CN(c1ncnn3c(C)nc(-c4ccccc4F)c13)CC2 [Example 164]"
  Readout Units: "nM"
  IC50: 5.92
- Molecule: "COc1cnc2c(c1)CN(c1ncnn3c(C)nc(-c4ccccc4F)c13)CC2 [Example 25]"
  Readout Units: "nM"
  IC50: 1.41
- Molecule: "CCc1nc(C)nc2c1CN(c1ncnn3c(C)nc([C@@H]4CCOC4)c13)CC2 [Example 133]"
  Readout Units: "nM"
  IC50: 0.625

P. Cc1nc([C@@H]2CCOC2)c2c(N3CCc4cnn(C5CC5)c4C3)ncnn12 [Example 5]
Q. Cc1nc([C@@H]2CCOC2)c2c(N3CCc4c(c(C(C)C)nn4C)C3)ncnn12 [Example 86]
Param metric = IC50; output whichever of P , Q has the minimum value. Let me know the label of the one you choose.
Q
(Q: 0.0444 nM, P: 0.427 nM)

* * *

- Target: rat PDE10 enzyme (Rattus norvegicus (Rat))
pIC50: −log10 of the molar value.
Measured Property: pIC50

Recorded pIC50, per entry:
- Compound: "CNc1ccc2c(n1)CCN(c1ncnn3c(C)nc(-c4ccccc4F)c13)C2"
  Measured Property: "pIC50"
  Measured Result: 9.36
- Compound: "CCOc1nc(C)nc2c1CN(c1ncnn3c(C)nc([C@@H]4CCOC4)c13)CC2"
  Measured Property: "pIC50"
  Measured Result: 9.91
- Compound: "Cc1nc2c(o1)CN(c1ncnn3c(C)nc([C@H]4CCOC4)c13)CC2"
  Measured Property: "pIC50"
  Measured Result: 7.64
- Compound: "COc1cc2c(cc1OC)CN(c1ncnn3c(C)nc([C@H]4CCCO4)c13)CC2"
  Measured Property: "pIC50"
  Measured Result: 7.43
- Compound: "Cc1nc2c(s1)CN(c1ncnn3c(C)nc([C@H]4CCCO4)c13)CC2"
  Measured Property: "pIC50"
  Measured Result: 8.01
- Compound: "CCc1noc2c1CN(c1ncnn3c(C)nc([C@@H]4CCOC4)c13)CC2"
  Measured Property: "pIC50"
  Measured Result: 8.43
- Compound: "CCc1nn(C)c2c1CN(c1ncnn3c(C)nc(-c4ccccc4F)c13)CC2"
  Measured Property: "pIC50"
  Measured Result: 9.47
- Compound: "Cc1nc(-c2ccccc2F)c2c(N3CCc4nc(C5CC5)nc(C(F)(F)F)c4C3)ncnn12"
  Measured Property: "pIC50"
  Measured Result: 8.51
- Compound: "Cc1nc([C@@H]2CCOC2)c2c(N3CCc4ccc(C(F)(F)F)nc4C3)ncnn12"
  Measured Property: "pIC50"
  Measured Result: 9.71
- Compound: "CCn1c(C)nc2c(c1=O)CN(c1ncnn3c(C)nc([C@@H]4CCOC4)c13)CC2"
  Measured Property: "pIC50"
  Measured Result: 10.00

A. Cc1nc(-c2ccccc2F)c2c(N3CCc4cnn(C(C)C)c4C3)ncnn12
B. CCOc1nc(C2CC2)nc2c1CN(c1ncnn3c(C)nc([C@@H]4CCOC4)c13)CC2
C. Cc1nc([C@H]2CCCO2)c2c(N3CCc4noc(C5CC5)c4C3)ncnn12
Rank entries according to their pIC50, from the largest number down. Returns: the labels arranged in the requested order.
B, A, C
(B: 9.90, A: 9.00, C: 8.41)

A. COc1ccc2c(c1OC)CN(c1ncnn3c(C)nc(C4CCOCC4)c13)CC2
B. COc1ccc2c(n1)CN(c1ncnn3c(C)nc(-c4ccccc4F)c13)CC2
C. Cc1nc([C@@H]2CCOC2)c2c(N3CCc4ccc(C5CC5)nc4C3)ncnn12
Hey, quick one: sort these by pIC50, largest value first please. Your answer should be the labels, listed in the requested order.
C, A, B

1. Cc1nc([C@@H]2CCOC2)c2c(N3CCc4cnn(C5CC5)c4C3)ncnn12
2. Cc1nc2c(c(C(F)(F)F)n1)CN(c1ncnn3c(C)nc([C@@H]4CCOC4)c13)CC2
3. Cc1nc(-c2ccccc2F)c2c(N3CCc4ncnc(O)c4C3)ncnn12
4. Cc1nc([C@H]2CCOC2)c2c(N3CCc4nc(C5CC5)ncc4C3)ncnn12
5. CCc1nn(C)c2c1CN(c1ncnn3c(C)nc([C@@H]4CCOC4)c13)CC2
Arrange by pIC50, high to low. // rank by listing labels in the order requested
5, 1, 2, 4, 3
(5: 9.83, 1: 9.52, 2: 8.81, 4: 8.27, 3: 7.95)

* * *

- Target: human recombinant PDE10 enzyme (PDE10A) (Homo sapiens)
- Assay Procedure: PDE10 scintillation proximity assay (SPA), inhibition of human recombinant PDE10 enzyme activity
- Condition: geometric mean of 2-4 determinations unless otherwise indicated (b: ≧5 determinations; c: single determination)
- Protocol: PDE10 activity was measured using a scintillation assay (SPA-based method) similar to that previously described by Seeger, T. F. et al., Brain Research 985 (2003) 113-126. The compounds' relative activity as PDE10 inhibitors was investigated by assaying a fixed amount of enzyme in the presence of the test compound and low substrate concentration (cAMP) such that an IC50 could be determined. […]
pIC50: −log10 of the molar value.
Measured Property: pIC50

A. Cc1nc([C@@H]2CCOC2)c2c(N3CCc4c(c(C5CC5)nn4C)C3)ncnn12
B. Cc1nc([C@@H]2CCOC2)c2c(N3CCc4nn(C)c(C5CC5)c4C3)ncnn12
C. COc1ccc2c(c1OCCF)CN(c1ncnn3c(C)nc([C@@H]4CCOC4)c13)CC2
D. Cc1nc(C2CC2)nc2c1CN(c1ncnn3c(C)nc(-c4ccccc4F)c13)CC2
Order the records by pIC50, with each subsequent value no larger than the one before. Present the labels in the sequence the task asks for.
C, B, A, D

* * *

Lab note: IC50 readings collected with rat PDE10 enzyme (Rattus norvegicus (Rat), UniProt Q9QYJ6) for the following compounds.
Sequence (Q9QYJ6 24-794): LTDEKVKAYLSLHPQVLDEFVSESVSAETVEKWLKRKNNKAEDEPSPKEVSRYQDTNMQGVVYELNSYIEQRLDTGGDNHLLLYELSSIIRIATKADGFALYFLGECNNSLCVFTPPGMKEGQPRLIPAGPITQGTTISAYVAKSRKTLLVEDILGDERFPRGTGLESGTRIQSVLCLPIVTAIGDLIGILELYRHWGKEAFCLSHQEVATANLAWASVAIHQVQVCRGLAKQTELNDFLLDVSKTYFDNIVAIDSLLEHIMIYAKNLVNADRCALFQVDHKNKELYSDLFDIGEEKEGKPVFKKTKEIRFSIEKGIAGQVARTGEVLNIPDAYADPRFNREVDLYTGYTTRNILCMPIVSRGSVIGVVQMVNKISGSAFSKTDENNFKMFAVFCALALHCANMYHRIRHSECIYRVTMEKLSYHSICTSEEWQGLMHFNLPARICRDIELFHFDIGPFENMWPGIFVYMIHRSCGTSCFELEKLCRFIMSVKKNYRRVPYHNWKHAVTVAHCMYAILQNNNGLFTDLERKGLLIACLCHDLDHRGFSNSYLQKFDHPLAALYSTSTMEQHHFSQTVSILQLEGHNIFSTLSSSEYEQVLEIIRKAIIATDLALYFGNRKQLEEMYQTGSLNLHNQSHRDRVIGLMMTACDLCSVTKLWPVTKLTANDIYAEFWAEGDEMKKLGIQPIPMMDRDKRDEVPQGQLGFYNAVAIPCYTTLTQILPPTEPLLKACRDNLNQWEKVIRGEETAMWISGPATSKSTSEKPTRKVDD
Measured Property: IC50 (nM)

# count of solved cases: 3
- Compound: "Cc1nc([C@@H]2CCOC2)c2c(N3CCc4cccnc4C3)ncnn12 [Example 3]"
  Readout Units: "nM"
  Measured Result: 0.607
- Compound: "Cc1nc2c(s1)CN(c1ncnn3c(C)nc(-c4ccccc4F)c13)CC2 [Example 114]"
  Readout Units: "nM"
  Measured Result: 1.49
- Compound: "Cc1nc(-c2ccccc2F)c2c(N3CCc4ccc(C5CC5)nc4C3)ncnn12 [Example 75]"
  Readout Units: "nM"
  Measured Result: 3.56

1. COc1cc2c(cc1OC)CN(c1ncnn3c(C)nc([C@H]4CCOC4)c13)CC2 [Example 14]
2. Cc1nc([C@@H]2CCOC2)c2c(N3CCc4nc(C5CC5)ncc4C3)ncnn12 [Example 16]
Just curious, which one has the larger IC50 reading, 1 or 2 ? Mark your selection by writing its label.
2

I. Cc1nc(C)c2c(n1)CCN(c1ncnn3c(C)nc([C@@H]4CCOC4)c13)C2 [Example 38]
II. COc1ccc2c(c1OCCF)CN(c1ncnn3c(C)nc([C@@H]4CCOC4)c13)CC2 [Example 4]
III. Cc1nc(-c2ccccc2F)c2c(N3CCc4ccc(C(F)(F)F)nc4C3)ncnn12 [Example 159]
Arrange the 3 entries by IC50 so the values rise. Answer by writing out the labels in the requested order.
II, I, III
(II: 0.205 nM, I: 1.78 nM, III: 9.7 nM)

1. Cc1nc([C@@H]2CCOC2)c2c(N3CCc4c(c(C5CC5)nn4C)C3)ncnn12 [Example 12]
2. CCc1c2c(nn1C)CCN(c1ncnn3c(C)nc(C4CCOCC4)c13)C2 [Example 105]
Quick check, higher IC50 between 1 and 2 ? // output: label of the selected item
2
(2: 1.88 nM, 1: 0.194 nM)
